System: E. Coli
quantity: MIC (µg/mL)

{"columns": ["compound", "systemUnderTest", "unitAbbreviation", "observed"],
 "data": [
  ["N=C(NCCCCCCCCCCCCNC(=N)NC(=N)NCCN1CCCC1=O)NC(=N)NCCN1CCCC1=O", "E. Coli", "µg/mL", 250],
  ["N=C(NCCOCCOCCNC(=N)NC(=N)NCCN1CCCC1=O)NC(=N)NCCN1CCCC1=O", "E. Coli", "µg/mL", 100],
  ["N=C(NCCCCCCNC(=N)NC(=N)NCCN1CCCC1=O)NC(=N)NCCN1CCCC1=O", "E. Coli", "µg/mL", 250],
  ["N=C(NCCCCCCNC(=N)NC(=N)Nc1ccc(Cl)cc1)NC(=N)Nc1ccc(Cl)cc1 [Chlorhexidine gluconate, reference compound]", "E. Coli", "µg/mL", 5]
]}

###

protocolDescription: Solubility in Water (Table 1)
Format: physicochemical
runConditions: HCl salt, pH 5.5, read-out: Solubility in water, HCl Salt (pH 5.5)

{"columns": ["chemicalStructure", "unitAbbreviation", "solubility"],
 "data": [
  ["N=C(NCCCCCCNC(=N)NC(=N)NCCN1CCCC1=O)NC(=N)NCCN1CCCC1=O", "mg/mL", 500],
  ["N=C(NCCCCCCCCCCCCNC(=N)NC(=N)NCCN1CCCC1=O)NC(=N)NCCN1CCCC1=O", "mg/mL", 500],
  ["[H]/N=C(\\N/C(=N/[H])NCCCCCCNC(=N)NC(=N)Nc1ccc(Cl)cc1)Nc1ccc(Cl)cc1", "mg/mL", 18],
  ["N=C(NCCOCCOCCNC(=N)NC(=N)NCCN1CCCC1=O)NC(=N)NCCN1CCCC1=O", "mg/mL", 500]
]}

###

protocolDescription: Solubility in Water (Table 1)
Type: physicochemical
runConditions: free base, pH 8.5, read-out: Solubility in water, Free Base (pH 8.5)

{"columns": ["compound", "solubility [mg/mL]"],
 "data": [
  ["N=C(NCCOCCOCCNC(=N)NC(=N)NCCN1CCCC1=O)NC(=N)NCCN1CCCC1=O [Ex. 6]", 500],
  ["[H]/N=C(\\N/C(=N/[H])NCCCCCCNC(=N)NC(=N)Nc1ccc(Cl)cc1)Nc1ccc(Cl)cc1 [Chlorhexidine, 1,6-bis(4-chlorophenylbiguanido)-hexane]", 0.08],
  ["N=C(NCCCCCCNC(=N)NC(=N)NCCN1CCCC1=O)NC(=N)NCCN1CCCC1=O [Ex. 4]", 50],
  ["N=C(NCCCCCCCCCCCCNC(=N)NC(=N)NCCN1CCCC1=O)NC(=N)NCCN1CCCC1=O [Ex. 5]", 20]
]}

###

Tested on: Staph. aur.

{"columns": ["compound", "systemUnderTest", "MIC"],
 "data": [
  ["N=C(NCCOCCOCCNC(=N)NC(=N)NCCN1CCCC1=O)NC(=N)NCCN1CCCC1=O [Ex. 6]", "Staph. aur.", "> 500 µg/mL"],
  ["N=C(NCCCCCCNC(=N)NC(=N)Nc1ccc(Cl)cc1)NC(=N)Nc1ccc(Cl)cc1 [Chlorhexidine gluconate, reference compound]", "Staph. aur.", "2.5 µg/mL"],
  ["N=C(NCCCCCCNC(=N)NC(=N)NCCN1CCCC1=O)NC(=N)NCCN1CCCC1=O [Ex. 4]", "Staph. aur.", "≤ 100 µg/mL"],
  ["N=C(NCCCCCCCCCCCCNC(=N)NC(=N)NCCN1CCCC1=O)NC(=N)NCCN1CCCC1=O [Ex. 5]", "Staph. aur.", "≤ 50 µg/mL"]
]}

###

Entries below carry reported MIC on Ps. aer..

{"columns": ["compound", "qualifierOperator", "MIC (µg/mL)"],
 "data": [
  ["N=C(NCCOCCOCCNC(=N)NC(=N)NCCN1CCCC1=O)NC(=N)NCCN1CCCC1=O", "≤", 100],
  ["N=C(NCCCCCCCCCCCCNC(=N)NC(=N)NCCN1CCCC1=O)NC(=N)NCCN1CCCC1=O", ">", 500],
  ["N=C(NCCCCCCNC(=N)NC(=N)NCCN1CCCC1=O)NC(=N)NCCN1CCCC1=O", "=", 250],
  ["N=C(NCCCCCCNC(=N)NC(=N)Nc1ccc(Cl)cc1)NC(=N)Nc1ccc(Cl)cc1 [Chlorhexidine gluconate, reference compound]", "=", 50]
]}

Values compiled from patent US4952704A.
